Molecular target: T1, HIV-1YU2 gp120 (HIV-1 strain YU-2, UniProt P35961 32-498, limits assumed)
T1 construct: domain: gp120
Experiment: SPR direct binding; YU-2 gp120 immobilized (~3500 RU), peptide as analyte
Where no end group is shown, it is not given here. [ ]: non-standard residue; d: D form.
Could you please mark true for values of kon below 100000 M⁻¹ s⁻¹ and false for values at or above it?

Answered cases to consult:
# BINDER, LABEL VALUE
records = [
    ("RNNI[Azp‑triazole‑ferrocene]WS (also called RNNIPWS) [UM22]", "false"),
    ("RNI[Azp‑triazole‑ferrocene]WS (also called RNIPWS) [UM32]", "true"),
    ("ENI[Azp‑triazole‑ferrocene]WS (also called ENIPWS) [UM33]", "true"),
]

Input line: Hello, is kon of the following binder strictly smaller than 100000 M⁻¹ s⁻¹? ENNI[Azp‑triazole‑ferrocene]WS-NH2 (Rink amide resin; also called ENNIPWS) [UM23]
Output line: false

Input line: hey, is kon for KNNI[Azp‑triazole‑ferrocene]WS (also called KNNIPWS) [UM27] lower than 100000 M⁻¹ s⁻¹ or not?
Output line: false

Input line: Identify whether the binder FNNI[Azp‑triazole‑ferrocene]WS-NH2 (Rink amide resin; also called FNNIPWS) [UM28] records kon below 100000 M⁻¹ s⁻¹.
Output line: false

Origin of values: patent US20130274178A1
